Molecular target: Grp94 (recombinant cGrp94) (Canis lupus familiaris (Dog) (Canis familiaris))
Sequence (P41148 22-804): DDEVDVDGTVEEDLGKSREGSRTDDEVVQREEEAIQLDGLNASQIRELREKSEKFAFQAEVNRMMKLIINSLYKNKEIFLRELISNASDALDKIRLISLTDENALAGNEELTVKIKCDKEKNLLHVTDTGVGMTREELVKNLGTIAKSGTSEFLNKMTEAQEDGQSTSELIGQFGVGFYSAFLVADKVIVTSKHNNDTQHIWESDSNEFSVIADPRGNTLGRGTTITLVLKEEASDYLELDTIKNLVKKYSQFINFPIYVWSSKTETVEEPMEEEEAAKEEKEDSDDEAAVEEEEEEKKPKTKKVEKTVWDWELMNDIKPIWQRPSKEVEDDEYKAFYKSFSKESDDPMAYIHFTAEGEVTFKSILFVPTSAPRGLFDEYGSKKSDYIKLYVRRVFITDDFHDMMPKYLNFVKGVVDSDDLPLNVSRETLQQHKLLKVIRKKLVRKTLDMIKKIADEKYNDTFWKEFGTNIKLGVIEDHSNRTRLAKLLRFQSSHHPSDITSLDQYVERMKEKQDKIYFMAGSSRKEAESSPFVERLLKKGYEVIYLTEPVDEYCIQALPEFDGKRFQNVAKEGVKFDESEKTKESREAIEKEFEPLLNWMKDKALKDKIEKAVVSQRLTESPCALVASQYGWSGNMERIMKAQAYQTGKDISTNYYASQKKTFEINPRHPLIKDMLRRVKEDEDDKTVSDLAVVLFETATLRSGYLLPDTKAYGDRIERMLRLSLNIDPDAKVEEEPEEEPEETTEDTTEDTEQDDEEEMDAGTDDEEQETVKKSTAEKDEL
Test: Fluorescence polarization (FP) assay, cGrp94 with FITC-GDA
Format: binding
Conditions: read-out: apparent Kd towards Grp94
Protocol: Fluorescence Polarization. […] Percent FITC-GDA bound was determined by using the DMSO millipolarization unit (mP) as the 100% bound value and the 0% for FITC-GDA. Kd values were calculated from separate experiments performed in triplicate using GraphPad Prism.
value_type: Kd

**Q:** Checklist item: Kd tested on Grp94 (recombinant cGrp94) (Canis lupus familiaris (Dog) (Canis familiaris)), entry `NC(=O)c1ccc(-n2cccc2Cc2ccccc2F)cc1N[C@H]1CC[C@H](O)CC1` , value?
**A:** ~724 nM
